// provenance: the kinase profiling compilation of Christmann-Franck et al. (2016)

# systemName: CDK4 CCND1 (human) (UniProt P11802+P24385)
# Sequence (P11802 whole entry, looked up): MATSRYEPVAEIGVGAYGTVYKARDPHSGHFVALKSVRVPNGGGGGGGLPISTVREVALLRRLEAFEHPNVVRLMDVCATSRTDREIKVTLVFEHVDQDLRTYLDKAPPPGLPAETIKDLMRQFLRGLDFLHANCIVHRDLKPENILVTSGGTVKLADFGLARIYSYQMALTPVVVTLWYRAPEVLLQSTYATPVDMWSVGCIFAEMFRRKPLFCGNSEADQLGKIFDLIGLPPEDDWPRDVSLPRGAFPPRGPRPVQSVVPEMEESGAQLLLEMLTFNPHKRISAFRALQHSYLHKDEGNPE
# Sequence (P24385 whole entry, looked up): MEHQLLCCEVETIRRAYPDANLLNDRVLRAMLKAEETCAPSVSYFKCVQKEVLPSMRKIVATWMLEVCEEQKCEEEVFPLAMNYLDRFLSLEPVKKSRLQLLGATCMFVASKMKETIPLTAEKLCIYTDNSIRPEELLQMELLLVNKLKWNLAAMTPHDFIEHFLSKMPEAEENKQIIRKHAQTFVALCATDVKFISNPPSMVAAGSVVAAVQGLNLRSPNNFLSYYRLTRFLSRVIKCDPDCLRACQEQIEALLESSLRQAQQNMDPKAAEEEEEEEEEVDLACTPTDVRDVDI
# testSummary: KINOMEscan competition binding
# assaySetup: compound 10.0 µM
kinase still bound, per cent of control under 50% gets t, anything at or over 50% gets f.

Record excerpt, results attached:
[
  {
    "chemSmiles": "COc1ccc(N(C(=O)Oc2c(C)cccc2C)c2ccnc(Nc3ccc(N4CCN(C)CC4)cc3)n2)c(OC)c1",
    "discreteLabel": "t"
  },
  {
    "chemSmiles": "COc1cc2ncnc(-n3nc(-c4ccccn4)nc3N)c2cc1OC",
    "discreteLabel": "t"
  },
  {
    "chemSmiles": "NC(=O)Nc1cc(-c2cccc(F)c2)sc1C(=O)N[C@@H]1CCCNC1",
    "discreteLabel": "f"
  },
  {
    "chemSmiles": "O=C(Nc1cccc(Nc2ncc(Br)c(NCCc3cnc[nH]3)n2)c1)N1CCCC1",
    "discreteLabel": "t"
  }
]

--- query ---
Q) Bench note: check whether C=CC(=O)Nc1cc(-n2c(=O)ccc3cnc4ccc(-c5cn[nH]c5)cc4c32)ccc1C shows kinase still bound, per cent of control below 50%
A) f

---

# Tested on: EGFR (human), P00533 [752-759 del]
# Sequence (P00533 whole entry, looked up, stated change not applied): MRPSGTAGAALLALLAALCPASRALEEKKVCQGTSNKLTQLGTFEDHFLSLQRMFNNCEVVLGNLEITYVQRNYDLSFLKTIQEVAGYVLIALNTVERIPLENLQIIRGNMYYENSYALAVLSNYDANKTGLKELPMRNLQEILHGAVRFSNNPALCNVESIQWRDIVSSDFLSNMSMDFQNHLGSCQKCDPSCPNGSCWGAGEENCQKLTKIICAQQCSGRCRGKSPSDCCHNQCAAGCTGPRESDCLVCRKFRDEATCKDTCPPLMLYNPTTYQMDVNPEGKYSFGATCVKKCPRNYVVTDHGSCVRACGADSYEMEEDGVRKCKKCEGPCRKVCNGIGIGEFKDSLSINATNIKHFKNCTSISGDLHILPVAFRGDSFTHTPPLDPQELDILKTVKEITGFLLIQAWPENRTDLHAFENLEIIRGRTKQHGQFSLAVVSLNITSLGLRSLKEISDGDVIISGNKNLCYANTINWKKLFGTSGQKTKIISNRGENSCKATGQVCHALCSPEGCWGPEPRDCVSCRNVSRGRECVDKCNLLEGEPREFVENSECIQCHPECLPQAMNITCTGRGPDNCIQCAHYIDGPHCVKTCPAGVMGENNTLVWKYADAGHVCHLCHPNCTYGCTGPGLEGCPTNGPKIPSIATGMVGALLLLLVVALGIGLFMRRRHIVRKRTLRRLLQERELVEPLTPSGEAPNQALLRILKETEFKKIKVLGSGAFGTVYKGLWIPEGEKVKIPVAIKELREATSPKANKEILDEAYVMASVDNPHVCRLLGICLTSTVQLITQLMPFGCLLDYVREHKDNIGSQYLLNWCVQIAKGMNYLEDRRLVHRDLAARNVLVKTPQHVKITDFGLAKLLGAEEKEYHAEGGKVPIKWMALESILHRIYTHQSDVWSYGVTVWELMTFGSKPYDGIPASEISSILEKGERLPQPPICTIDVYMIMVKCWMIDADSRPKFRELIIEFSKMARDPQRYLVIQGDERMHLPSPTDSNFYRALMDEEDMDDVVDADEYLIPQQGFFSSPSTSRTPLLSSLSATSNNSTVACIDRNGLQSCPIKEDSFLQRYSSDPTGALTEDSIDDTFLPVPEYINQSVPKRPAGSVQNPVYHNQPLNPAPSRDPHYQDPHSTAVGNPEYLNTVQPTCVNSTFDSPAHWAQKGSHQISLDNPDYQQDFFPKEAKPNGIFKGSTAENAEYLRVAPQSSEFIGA
# testSummary: KINOMEscan competition binding
# assaySetup: compound 10.0 µM
measuredAttribute: kinase still bound, per cent of control (%)
Field: numeric (%). Do not append units.

[
  {
    "chemSmiles": "CCN1CCN(Cc2ccc(NC(=O)c3ccc(C)c(/C=C/c4cnc5[nH]ccc5c4OC)c3)cc2C(F)(F)F)CC1",
    "observedResult": 0
  },
  {
    "chemSmiles": "O=C1NC(=O)/C(=C/c2ccc3nccc(-c4ccncc4)c3c2)S1",
    "observedResult": 95
  },
  {
    "chemSmiles": "CNC(=O)Nc1ccc(-c2nc(N3CC4CCC(C3)O4)c3cnn(C4CCC5(CC4)OCCO5)c3n2)cc1",
    "observedResult": 55
  },
  {
    "chemSmiles": "CN(C)C/C=C/C(=O)Nc1ccc(C(=O)Nc2cccc(Nc3nccc(-c4cccnc4)n3)c2)cc1",
    "observedResult": 88
  }
]

Q) Requested field: kinase still bound, per cent of control. Item: C=CC(=O)Nc1cccc(Nc2nc(N[C@H]3CC[C@H](N(C)C)CC3)nc3c2ncn3C(C)C)c1
A) 82

---

kinase still bound, per cent of control for assorted molecules
# systemName: STK10 (human) (UniProt O94804)
# Sequence (O94804 whole entry, looked up): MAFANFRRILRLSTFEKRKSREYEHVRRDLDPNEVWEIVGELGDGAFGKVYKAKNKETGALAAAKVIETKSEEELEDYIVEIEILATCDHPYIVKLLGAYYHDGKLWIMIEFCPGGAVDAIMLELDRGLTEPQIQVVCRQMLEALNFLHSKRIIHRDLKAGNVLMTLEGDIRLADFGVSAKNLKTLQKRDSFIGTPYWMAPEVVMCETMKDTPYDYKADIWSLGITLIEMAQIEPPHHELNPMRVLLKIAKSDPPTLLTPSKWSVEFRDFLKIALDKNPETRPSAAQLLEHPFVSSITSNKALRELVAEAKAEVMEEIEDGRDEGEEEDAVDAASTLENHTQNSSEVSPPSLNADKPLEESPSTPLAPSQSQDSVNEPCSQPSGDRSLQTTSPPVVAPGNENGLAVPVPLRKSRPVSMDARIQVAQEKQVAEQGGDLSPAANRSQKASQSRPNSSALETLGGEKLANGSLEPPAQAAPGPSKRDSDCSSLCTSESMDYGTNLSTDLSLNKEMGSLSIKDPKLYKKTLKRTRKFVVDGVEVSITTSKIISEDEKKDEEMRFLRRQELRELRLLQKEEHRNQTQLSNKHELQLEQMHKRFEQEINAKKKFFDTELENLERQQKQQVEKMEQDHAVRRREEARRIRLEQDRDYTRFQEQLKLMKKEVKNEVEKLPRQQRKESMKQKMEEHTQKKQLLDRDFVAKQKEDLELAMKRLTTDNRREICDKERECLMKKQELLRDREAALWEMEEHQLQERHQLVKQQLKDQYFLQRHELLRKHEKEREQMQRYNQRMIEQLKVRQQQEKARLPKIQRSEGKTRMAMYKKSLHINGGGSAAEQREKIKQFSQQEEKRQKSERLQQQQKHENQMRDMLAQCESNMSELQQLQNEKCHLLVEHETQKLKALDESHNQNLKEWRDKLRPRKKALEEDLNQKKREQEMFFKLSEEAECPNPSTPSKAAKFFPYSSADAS
# testSummary: KINOMEscan competition binding
# assaySetup: compound 10.0 µM
Field: numeric (%). Do not append units.

Completed entries (count: 3):
[
  {
    "chemSmiles": "O=C1NC(=O)/C(=C/c2ccc3nccc(-c4ccncc4)c3c2)S1",
    "observedResult": 0.1
  },
  {
    "chemSmiles": "CCN(CC)CCCCNc1ncc2c(n1)N(C)C(=O)N(c1c(Cl)c(OC)cc(OC)c1Cl)C2",
    "observedResult": 100
  },
  {
    "chemSmiles": "Cc1n[nH]c2ccc(-c3cncc(OC[C@@H](N)Cc4c[nH]c5ccccc45)c3)cc12",
    "observedResult": 100
  }
]

Q) Given the entry CCN1CCN(C(=O)Cc2ccc(Nc3ncc(F)c(Nc4ccc(C(=O)Nc5ccccc5Cl)cc4)n3)cc2)CC1 , what kinase still bound, per cent of control was observed with STK10 (human) (UniProt O94804)?
A) 3.4

Q) Ok, now CN(C)C/C=C/C(=O)Nc1ccc(C(=O)Nc2cccc(Nc3nccc(-c4cccnc4)n3)c2)cc1
A) 100

Q) Ok, now COc1cc2ncnc(-n3nc(-c4ccccn4)nc3N)c2cc1OC
A) 12

Q) Ok, now CNC(=O)c1cc(Oc2ccc(NC(=O)Nc3ccc(Cl)c(C(F)(F)F)c3)cc2)ccn1
A) 0

Q) Ok, now COc1cc(N2CCN(C)CC2)ccc1Nc1ncc2c(n1)N(C)c1ccccc1C(=O)N2C
A) 100

Q) Ok, now O=c1cc(N2CCOCC2)oc2c(-c3cccc4c3sc3ccccc34)cccc12
A) 100

Q) Ok, now COCC(=O)NC/C=C/c1ccc2ncnc(Nc3ccc(Oc4ccc(C)nc4)c(C)c3)c2c1
A) 4.2

Q) Ok, now O=C(Nc1cccc(Nc2ncc(Br)c(NCCc3cnc[nH]3)n2)c1)N1CCCC1
A) 4.6

Q) Ok, now C=CC(=O)Nc1cc(-n2c(=O)ccc3cnc4ccc(-c5cn[nH]c5)cc4c32)ccc1C
A) 94

Q) Ok, now COc1ccc(N(C(=O)Oc2c(C)cccc2C)c2ccnc(Nc3ccc(N4CCN(C)CC4)cc3)n2)c(OC)c1
A) 0
